These measurements were taken from paper PMC9781020.

EXPERIMENTAL DETAILS: Cytotoxicity against HUVECs (WST-8)
Format: cell-based, human
REPORTED CONDITIONS: human, HUVECs (human umbilical vein endothelial cells), 72 h
ASSAY READOUT: IC50 at 72 h (µM)
Numbers only, in µM.

Please review the entries below; each comes with its answer.
CN(CCc1ccccc1)c1cnc2ccccc2c1	16
O=C(Cc1ccccc1)Nc1cnc2ccccc2c1 [Compound 36, 2-Phenyl-N-(quinolin-3-yl)acetamide]	4.9
c1ccc2cc(CCNc3cnc4ccccc4c3)ccc2c1	13
COC1=Cc2ccnc3c(NCCc4ccccc4)cnc(c23)C1=O [Compound 1, 3-(phenethylamino)demethyl(oxy)aaptamine, reference compound]	1.36
c1ccc(CCNc2cnc3ccccc3c2)cc1	18

Now for the molecule whose IC50 at 72 h we want.
Any idea what its IC50 at 72 h is? The molecule is `c1ccc(CCOc2cnc3ccccc3c2)cc1`
11

====

EXPERIMENTAL DETAILS: Cytotoxicity against HUVECs (WST-8)
Type: cell-based, human
REPORTED CONDITIONS: human, HUVECs (human umbilical vein endothelial cells), 72 h
Experimental: HUVECs (5 × 10^5 cells/vial) was purchased from Kurabo Inc. and grown in HuMedia-EG2 medium with growth supplements (Kurabo Inc., Osaka, Japan). HUVECs in the culture medium was plated into each well of 96-well plates (2 × 10^3 cells/well/100 µL). […] The cell proliferation was detected by WST-8 colorimetric reagent (Nacalai Tesque, Inc., Kyoto, Japan). The IC50 value was determined by linear interpolation from the growth inhibition curve.
# condition met = IC50 at 72 h below 10 µM (exclusive); condition not met = IC50 at 72 h at/above 10 µM

// known answers, use as guide
c1ccc2ncc(NCCC3CCCCC3)cc2c1 [Compound 42, N-(2-Cyclohexylethyl)quinolin-3-amine]	condition not met
c1ccc(CCNc2cncc3cccnc23)cc1 [Compound 7, N-Phenethyl-1,6-naphthyridin-8-amine]	condition met
COc1cc2ccnc(C(=O)NCCc3ccccc3)c2cc1OC [Compound 5]	condition not met
C#CCN(CCc1ccccc1)c1cnc2ccccc2c1 [Compound 38]	condition not met
COC1=CC(=O)c2cc(NCCc3ccccc3)cnc2C1=O [Compound 32]	condition met

Strictly below 10 µM: is that where IC50 at 72 h of C#CCCNc1cnc2ccccc2c1 [Compound 46, N-(But-3-yn-1-yl)quinolin-3-amine] sits?
condition not met

Answer whether the compound c1ccc2ncc(NCCc3cccc4ccccc34)cc2c1 [Compound 43] has IC50 at 72 h strictly less than 10 µM
condition not met

Quick check: does c1csc(CCNc2cnc3ccccc3c2)c1 [Compound 45] have IC50 at 72 h under 10 µM?
condition not met

A record lists O=C1C=CC(=O)c2ncc(NCCc3ccccc3)cc21 [Compound 25, 3-(Phenethylamino)quinoline-5,8-dione] . Is its IC50 at 72 h below 10 µM?
condition met
